tested on: KM12 colon; assay: NCI tumour cell line growth inhibition, 48 h; in the data active = GI50 below about 0.43 µM; inactive = the rest
Outcomes: active, inactive

{"MOLECULE": "C/C(=C\\c1ccn(-c2ccc(N)c(C(F)(F)F)c2)n1)[C@@H]1C[C@@H]2O[C@]2(C)CCC[C@H](C)[C@H](O)[C@@H](C)C(=O)C(C)(C)[C@@H](O)CC(=O)O1", "ASSIGNED_CLASS": "active"}
{"MOLECULE": "CCN(Cc1ccc(F)cc1)c1ccc(CO)c(Cl)c1", "ASSIGNED_CLASS": "inactive"}
{"MOLECULE": "O=C1C=C(Nc2ccccc2)c2ncccc2C1=O", "ASSIGNED_CLASS": "inactive"}
{"MOLECULE": "CN(C)CC/C=C1\\c2ccccc2Sc2ccc(Cl)cc21", "ASSIGNED_CLASS": "inactive"}
{"MOLECULE": "CC(=O)[CH-]C(=O)c1ccccc1.CC(=O)[CH-]C(=O)c1ccccc1.O=C([O-])C[O-].O=C([O-])C[O-].[Ti+4]", "ASSIGNED_CLASS": "inactive"}
{"MOLECULE": "O=c1oc2ccc(Cl)cc2c(=O)n1-c1ccc(Cl)cc1F", "ASSIGNED_CLASS": "inactive"}
{"MOLECULE": "CS(=O)(=O)c1ccc(N/N=C/c2c(-c3ccc(S(C)(=O)=O)cc3)[nH]c3ccc(F)cc23)cc1", "ASSIGNED_CLASS": "inactive"}
{"MOLECULE": "COc1cc2c(c(OC)c1OC)-c1ccc(OC)c(=O)cc1[C@@H](NC(=O)CCl)CC2", "ASSIGNED_CLASS": "active"}
{"MOLECULE": "CCCCCCCCCCCCCOC(=O)c1c(C)[nH]c(/C=C2\\N=C(c3ccc[nH]3)C=C2OC)c1C", "ASSIGNED_CLASS": "active"}
{"MOLECULE": "COc1ccc(C(=O)/C=C/c2cc3ccccc3[nH]c2=O)cc1", "ASSIGNED_CLASS": "inactive"}
{"MOLECULE": "CCc1ccc(C2=C/C(=C/c3ccc(Cl)cc3)C(=O)N2CCc2ccc(S(N)(=O)=O)cc2)cc1", "ASSIGNED_CLASS": "inactive"}
{"MOLECULE": "O=C1C2CC3C(CC2C(=O)[N]1[Sn]([c]1ccccc1)([c]1ccccc1)[c]1ccccc1)C1(Cl)C(Cl)=C(Cl)C3(Cl)C1(Cl)Cl (stereo not given)", "ASSIGNED_CLASS": "active"}
{"MOLECULE": "C=C(C)C(=O)NC(N)=NC#N", "ASSIGNED_CLASS": "inactive"}
{"MOLECULE": "CCOC(=O)[C@H](CSSc1ncnc2cc[nH]c12)NC(=O)[C@@H](C)c1ccc2cc(OC)ccc2c1", "ASSIGNED_CLASS": "inactive"}
{"MOLECULE": "CCC1CCc2nc3sc(C(=O)Nc4ccccc4F)c(N)c3cc2C1 (stereo not given)", "ASSIGNED_CLASS": "inactive"}

---

The following molecules are listed with their measured TGI values.
test system: ACHN renal; assay: NCI tumour cell line growth inhibition, 48 h

{"MOLECULE": "CC(=O)O[C@H]1C(=O)[C@@]2(C)C(C(OC(=O)c3ccccc3)[C@]3(O)CC(OC(=O)C(O)C(NC(=O)c4ccccc4)c4ccc(F)cc4)C(C)=C1C3(C)C)[C@]1(OC(C)=O)CO[C@@H]1C[C@@H]2O (stereo partly specified)", "TGT": "ACHN renal", "TGI": "> 10 µM"}
{"MOLECULE": "CCOC(=O)Cc1ccc(Nc2nc3cc(C(F)(F)F)ccc3nc2C(=O)OCC)cc1", "TGT": "ACHN renal", "TGI": "> 100 µM"}
{"MOLECULE": "CCOC(=O)C1C(=O)CC(C)(O)C(C(=O)OCC)C1c1ccc(N(C)C)cc1 (stereo unspecified)", "TGT": "ACHN renal", "TGI": "> 100 µM"}
{"MOLECULE": "COc1ccc2cc(C(=O)c3ccccc3C(=O)O)ccc2c1", "TGT": "ACHN renal", "TGI": "> 100 µM"}
{"MOLECULE": "COc1cc2c(c(OC)c1OC)-c1ccc([O-])c(=O)cc1[C@@H](NC(C)=O)CC2.COc1cc2c(c(OC)c1OC)-c1ccc([O-])c(=O)cc1[C@@H](NC(C)=O)CC2.[Cu+2]", "TGT": "ACHN renal", "TGI": "> 100 µM"}
{"MOLECULE": "O=C1CN(c2cccc(C(F)(F)F)c2)C(=O)CN1NCNN1CC(=O)N(c2cccc(C(F)(F)F)c2)CC1=O", "TGT": "ACHN renal", "TGI": "> 100 µM"}
{"MOLECULE": "C1COC2SC3=C(SC(=C4SC5=C(SCCS5)S4)S3)SC2O1 (stereo unspecified)", "TGT": "ACHN renal", "TGI": "> 100 µM"}
{"MOLECULE": "COc1ccc(-c2coc3ncnc(N)c23)cc1", "TGT": "ACHN renal", "TGI": "> 25 µM"}
{"MOLECULE": "COc1cc(C(=O)C/C(CCC(=O)Nc2ccccc2[N+](=O)[O-])=N\\NC(=O)C(N)=O)ccc1O", "TGT": "ACHN renal", "TGI": "> 100 µM"}
{"MOLECULE": "CCCSc1cc(Cl)c(C)cc1S(=O)(=O)n1cc[nH]c1=O", "TGT": "ACHN renal", "TGI": "> 100 µM"}
{"MOLECULE": "CC1(C)CC23C(=O)N(c4ccccc4)C(=Nc4ccccc4)NC2=CC(C#N)=C(C#N)C3O1 (stereo unspecified)", "TGT": "ACHN renal", "TGI": "> 100 µM"}
{"MOLECULE": "COc1ccc(OC)c(/C=C/c2nnc(Nc3ccc(Cl)cc3)o2)c1", "TGT": "ACHN renal", "TGI": "19.9 µM"}
{"MOLECULE": "COc1cccc2c1C(=O)C(=O)c1c-2oc(=O)c2cc(C)cc(OC)c12", "TGT": "ACHN renal", "TGI": "> 75 µM"}
{"MOLECULE": "COC(=O)[C@@H]1O[C@]12C(CO[Si](C)(C)C(C)(C)C)OC(n1ccc(=O)[nH]c1=O)C2O[Si](C)(C)C(C)(C)C (stereo partly specified)", "TGT": "ACHN renal", "TGI": "54.1 µM"}
{"MOLECULE": "Oc1c(Br)cc(Br)cc1CN(Cc1cc(Br)cc(Br)c1O)C1CCCCC1", "TGT": "ACHN renal", "TGI": "> 100 µM"}
{"MOLECULE": "N#Cc1c(C#N)c(-c2cccc([N+](=O)[O-])c2)n(-c2ccccc2)c1N", "TGT": "ACHN renal", "TGI": "> 100 µM"}

Data origin, for the record: PubChem BioAssay (NCI)
